study_system: Microtubule-associated protein tau (Homo sapiens) (UniProt P10636)
Sequence (P10636 whole entry, looked up): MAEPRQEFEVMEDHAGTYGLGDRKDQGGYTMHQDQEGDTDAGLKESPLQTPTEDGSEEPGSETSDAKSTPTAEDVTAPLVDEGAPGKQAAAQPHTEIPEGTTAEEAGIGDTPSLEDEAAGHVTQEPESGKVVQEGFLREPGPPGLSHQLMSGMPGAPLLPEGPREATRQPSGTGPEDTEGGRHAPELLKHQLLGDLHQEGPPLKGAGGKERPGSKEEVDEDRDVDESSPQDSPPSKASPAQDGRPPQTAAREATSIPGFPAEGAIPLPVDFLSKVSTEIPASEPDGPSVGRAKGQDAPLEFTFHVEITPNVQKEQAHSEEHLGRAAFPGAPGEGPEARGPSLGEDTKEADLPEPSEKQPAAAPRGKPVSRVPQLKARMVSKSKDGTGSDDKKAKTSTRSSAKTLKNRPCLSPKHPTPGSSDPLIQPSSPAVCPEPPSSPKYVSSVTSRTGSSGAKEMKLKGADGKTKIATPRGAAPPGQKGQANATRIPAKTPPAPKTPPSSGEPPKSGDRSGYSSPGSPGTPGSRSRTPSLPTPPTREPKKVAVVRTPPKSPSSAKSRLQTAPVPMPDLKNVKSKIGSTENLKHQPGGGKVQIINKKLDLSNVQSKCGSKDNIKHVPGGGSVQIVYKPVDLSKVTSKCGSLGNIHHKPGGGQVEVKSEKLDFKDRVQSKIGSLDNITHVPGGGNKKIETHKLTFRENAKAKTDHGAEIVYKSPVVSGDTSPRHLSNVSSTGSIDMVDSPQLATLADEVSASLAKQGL
assay_text: qHTS Assay for Tau Filament Binding;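 also: actives lower thioflavin S fluorescence by blocking filaments or displacing dye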
condition_set: recombinant tau filaments, thioflavin S fluorescence, 15 h, filaments grown with octadecylsulfate alongside compound; series mostly up to 57.1 µM
About 1,400 (2%) of roughly 71,000 compounds were called active. Roughly 3% stayed inconclusive and do not appear here. Calls follow the shape of the dose curve; as a rule, active = well fitted curve in the direction sought with a large enough effect; inconclusive = small, poorly fitted or top-dose-only effect; inactive = no such curve, though single readings can be large or run the other way. Many of the other results were omitted from the sample, so actives are more common in it than they were.
Lab note: assign the record to one of active, inactive

Which outcome did this test record for the compound CC(C)CO ? inactive

Which outcome did this test record for the compound CC(C)(C)[Si](OCC[C@@H]1C[C@@]1(C)[C@@H](NP(=O)(c1ccccc1)c1ccccc1)c1ccccc1)(c1ccccc1)c1ccccc1 ? inactive

Which outcome did this test record for the compound CC(C)Nc1nc(N(c2ccccc2)c2ccccc2)nc(-n2ccnc2)n1 ? inactive

Which outcome did this test record for the compound CCc1c(C)n([O-])c2c([n+]1=O)CCCCC2 ? inactive

Which outcome did this test record for the compound CCCC(C(=O)NCc1ccco1)N(C(=O)CNS(=O)(=O)c1ccccc1)C1CCCC1 (stereo unspecified) ? inactive

Which outcome did this test record for the compound O=C(CSc1nc2[nH]ncc2c(=O)n1-c1ccccc1)N1CCCc2ccccc21 ? inactive

Which outcome did this test record for the compound Cc1ccccc1NC(=O)c1ccccc1 ? inactive

Which outcome did this test record for the compound N#Cc1nc(N)nc(N(c2ccccc2)c2ccccc2)n1 ? active

Which outcome did this test record for the compound O=C1CCCc2c1[nH]c1ccc(Br)cc21 ? inactive

Which outcome did this test record for the compound Cc1cccc(NC(=O)CSC(N)=O)c1C ? inactive

Which outcome did this test record for the compound COCCn1c(=O)[nH]c2cc(C(=O)NCc3cccnc3)ccc2c1=O ? inactive

Every entry's value here was drawn from PubChem BioAssay AID596.
